The binders listed here are annotated with their TL1A Binding Level (Late).
# TEST TARGET: T1, human TL1A extracellular domain with N-terminal HIS and FLAG tag (human, UniProt O95150 72-251)
# T1 construct: the whole entry is named
# T1 sequence: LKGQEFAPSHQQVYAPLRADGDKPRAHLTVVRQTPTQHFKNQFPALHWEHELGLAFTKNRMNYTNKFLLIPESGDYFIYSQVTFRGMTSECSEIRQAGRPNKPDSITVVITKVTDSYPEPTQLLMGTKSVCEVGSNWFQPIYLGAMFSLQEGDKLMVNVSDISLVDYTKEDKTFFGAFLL
# ASSAY PROTOCOL: SPR Run 6, purified Ab captured on Protein A, TL1A 5 ug/mL, timepoint 170

BINDER | TL1A Binding Level (Late) (RU)
320-462 (antibody, human IgG1, name in Kabat numbering, V domains shown, human IgG1, lambda) VH: QVQLVQSGAEVKKPGASVKVSCKASGYTFTSYDYNWVRQAPGQGLEWMGWLNPNSGNTGYAQKFQGRVTMTADRSTSTAYMELSSLRSEDTAVYYCAREVPETAAFEYWGQGTLVTVSS VL: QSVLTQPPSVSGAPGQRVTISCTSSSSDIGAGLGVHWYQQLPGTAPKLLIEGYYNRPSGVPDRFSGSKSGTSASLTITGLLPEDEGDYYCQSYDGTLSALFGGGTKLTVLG | 52
320-454 (antibody, human IgG1, name in Kabat numbering, V domains shown, human IgG1, lambda) VH: QVQLVQSGAEVKKPGASVKVSCKASGYTFTSYDANWVRQAPGQGLEWMGWLNPNSGNTGYAQKFQGRVTMTADRSTSTAYMELSSLRSEDTAVYYCAREVPETAAFEYWGQGTLVTVSS VL: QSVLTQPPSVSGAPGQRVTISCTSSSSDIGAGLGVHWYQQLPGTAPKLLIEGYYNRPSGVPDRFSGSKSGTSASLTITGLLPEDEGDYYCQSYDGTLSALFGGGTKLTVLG | 37
320-458 (antibody, human IgG1, name in Kabat numbering, V domains shown, human IgG1, lambda) VH: QVQLVQSGAEVKKPGASVKVSCKASGYTFTSYDHNWVRQAPGQGLEWMGWLNPNSGNTGYAQKFQGRVTMTADRSTSTAYMELSSLRSEDTAVYYCAREVPETAAFEYWGQGTLVTVSS VL: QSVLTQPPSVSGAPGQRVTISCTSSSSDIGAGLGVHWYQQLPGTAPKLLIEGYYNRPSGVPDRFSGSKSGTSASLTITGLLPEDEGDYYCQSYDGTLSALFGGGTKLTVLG | 53
320-451 (antibody, human IgG1, name in Kabat numbering, V domains shown, human IgG1, lambda) VH: QVQLVQSGAEVKKPGASVKVSCKASGYTFTSYLINWVRQAPGQGLEWMGWLNPNSGNTGYAQKFQGRVTMTADRSTSTAYMELSSLRSEDTAVYYCAREVPETAAFEYWGQGTLVTVSS VL: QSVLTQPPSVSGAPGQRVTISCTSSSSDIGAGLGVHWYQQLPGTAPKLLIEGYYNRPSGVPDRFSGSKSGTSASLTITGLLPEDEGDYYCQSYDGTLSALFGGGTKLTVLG | 8
320-463 (antibody, human IgG1, name in Kabat numbering, V domains shown, human IgG1, lambda) VH: QVQLVQSGAEVKKPGASVKVSCKASGYTFTSYDIAWVRQAPGQGLEWMGWLNPNSGNTGYAQKFQGRVTMTADRSTSTAYMELSSLRSEDTAVYYCAREVPETAAFEYWGQGTLVTVSS VL: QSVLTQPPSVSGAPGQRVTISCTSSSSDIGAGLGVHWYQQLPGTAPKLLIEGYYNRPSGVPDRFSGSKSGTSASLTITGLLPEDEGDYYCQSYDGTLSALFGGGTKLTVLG | 101

Each recorded value in this set is attributed to patent US20170081400A1.
